Where these numbers come from: ChEMBL document CHEMBL5154675

# ASSAY_PROCEDURE: Metabolic stability in human liver microsomes assessed as parent compound remaining at 1 uM incubated for 45 mins in presence of NADPH by LC-MS/MS analysis
# Type: ADME, Microsome
# CONDITION_INFO: read-out: Stability
VALUE_KIND: remaining at 0.75 h, 1 µM (%)

COc1ccn2c(C(C)=O)cc(C(=O)Nc3cc(C(C)O)cc(-c4cnn(C5CC5)c4)c3F)c2c1 (stereo not drawn): 23.1
CC(=O)c1cc(C(=O)Nc2cc(CO)cc(-c3cnn(C4CC4)c3)c2F)c2cc(OC(=O)N(C)C)ccn12: 16.9
Cc1ncc2n1-c1ccc(Cl)cc1C(c1ccccc1F)=NC2: 0.55
